Quick list: ND50 per entry.
Target: T1, human IL-1α (human, UniProt P01583 113-271)
T1 sequence (looked up): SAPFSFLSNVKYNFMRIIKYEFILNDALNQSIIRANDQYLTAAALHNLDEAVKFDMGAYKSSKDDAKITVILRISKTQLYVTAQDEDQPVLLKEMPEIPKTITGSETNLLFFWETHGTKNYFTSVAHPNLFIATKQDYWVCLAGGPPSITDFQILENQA
Experiment: cell-based or functional assay
Quick reminder: number only, in nM, skip the unit.

# binder, endpoint-name, measurement-unit, endpoint-value
rows = [
    ("ABT1-95-164 (other) VL: DIQMTQSPSSLSASVGDRVTITCRASQPGVRNLRWYQQKPGKAPKLLIYSSSYLEPGVPSRFSGSGSGTDFTLTISSLQPEDFATYHCQQGYRWPVTFGQGTKVEIKR", "ND50", "nM", 0.15),
]

Now look at this entry.
// ND50 lookup, key: ABT1-165 (other, VK dAb) VL: DIQMTQSPSSLSASVGDRVTITCRASSSIRAGLAWYQQKPGKAPKLLIGPESGLQSGVPSRFSGSGSGTDFTLTISSLQPEDFATYYCGQGIDGPATFGQGTKVEIKR 1000

Source listed as patent US20090291081A1.
